# targetOfAssay: 5-HT2B (Homo sapiens, UniProt P41595)
# Construct: host or cells: CHO-K1
# Sequence (P41595 whole entry, species assumed): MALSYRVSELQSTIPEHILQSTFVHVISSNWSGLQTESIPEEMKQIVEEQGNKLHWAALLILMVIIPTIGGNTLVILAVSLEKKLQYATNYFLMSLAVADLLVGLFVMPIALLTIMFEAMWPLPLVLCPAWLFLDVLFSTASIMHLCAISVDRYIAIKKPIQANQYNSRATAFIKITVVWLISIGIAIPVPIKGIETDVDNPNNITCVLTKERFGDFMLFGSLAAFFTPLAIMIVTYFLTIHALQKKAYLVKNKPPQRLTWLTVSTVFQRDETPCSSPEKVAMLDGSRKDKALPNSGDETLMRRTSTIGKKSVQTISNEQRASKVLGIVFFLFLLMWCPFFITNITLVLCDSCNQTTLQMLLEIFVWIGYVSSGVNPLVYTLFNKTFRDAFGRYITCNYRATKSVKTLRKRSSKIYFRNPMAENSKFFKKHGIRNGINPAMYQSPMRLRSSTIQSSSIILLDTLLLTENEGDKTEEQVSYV
# experimentalDetails: Activation in a similar Ca2+ flux assay at a single concentration, 5-HT2B
# Assay type: cell-based
# measurementSetup: head prints 10 µM
valueType: 5-HT2B % Activation @ 10 µM (%)
A number alone suffices; assume %.

- molecule: "COc1cc(F)c2[nH]nc(CCN3CCC4CC43)c2c1 (stereo not shown)"
  targetOfAssay: "5-HT2B (Homo sapiens, UniProt P41595)"
  unitString: "%"
  5-HT2B % Activation @ 10 µM: 48
- molecule: "COc1c(F)ccc2[nH]nc(CCN(C)C3CC3)c12"
  targetOfAssay: "5-HT2B (Homo sapiens, UniProt P41595)"
  unitString: "%"
  5-HT2B % Activation @ 10 µM: 2
- molecule: "CCN(C)CCc1n[nH]c2cc(F)c(OC)cc12"
  targetOfAssay: "5-HT2B (Homo sapiens, UniProt P41595)"
  unitString: "%"
  5-HT2B % Activation @ 10 µM: 40
- molecule: "COc1ccc(F)c2[nH]nc(CCN3CCC4CC43)c12 (stereo not shown)"
  targetOfAssay: "5-HT2B (Homo sapiens, UniProt P41595)"
  unitString: "%"
  5-HT2B % Activation @ 10 µM: 7
- molecule: "COc1cc2c(CCN(C)C)n[nH]c2cc1F"
  targetOfAssay: "5-HT2B (Homo sapiens, UniProt P41595)"
  unitString: "%"
  5-HT2B % Activation @ 10 µM: 44
- molecule: "CCN(C)CCc1n[nH]c2ccc(F)c(OC)c12"
  targetOfAssay: "5-HT2B (Homo sapiens, UniProt P41595)"
  unitString: "%"
  5-HT2B % Activation @ 10 µM: 57
- molecule: "COc1cc(F)cc2[nH]nc(CCN(C)C)c12"
  targetOfAssay: "5-HT2B (Homo sapiens, UniProt P41595)"
  unitString: "%"
  5-HT2B % Activation @ 10 µM: 0
- molecule: "COc1cc2c(CCN3CCC4CC43)n[nH]c2cc1F (stereo not shown)"
  targetOfAssay: "5-HT2B (Homo sapiens, UniProt P41595)"
  unitString: "%"
  5-HT2B % Activation @ 10 µM: 89
- molecule: "COc1cccc(CNCCc2n[nH]c3ccc(OC)cc23)c1"
  targetOfAssay: "5-HT2B (Homo sapiens, UniProt P41595)"
  unitString: "%"
  5-HT2B % Activation @ 10 µM: 0
- molecule: "CN(C)CCc1n[nH]c2c(F)cccc12"
  targetOfAssay: "5-HT2B (Homo sapiens, UniProt P41595)"
  unitString: "%"
  5-HT2B % Activation @ 10 µM: 0

Identify the measured 5-HT2B % Activation @ 10 µM of "COc1ccccc1CNCCc1n[nH]c2cccc(F)c12" for 5-HT2B (Homo sapiens, UniProt P41595).
0

Hi! What's the reported 5-HT2B % Activation @ 10 µM for "COc1cc2c(CCN(C)C(C)C)n[nH]c2cc1F" on 5-HT2B (Homo sapiens, UniProt P41595)?
7

Request: 5-HT2B % Activation @ 10 µM, test system 5-HT2B (Homo sapiens, UniProt P41595), entry "COc1ccccc1CNCCc1n[nH]c2ccc(F)c(F)c12"
0

Provide the documented 5-HT2B % Activation @ 10 µM with 5-HT2B (Homo sapiens, UniProt P41595) as the system for "CCN(C)CCc1n[nH]c2ccc(F)cc12"
16
